Test: Cytotoxicity against human WI38 cells assessed as reduction in cell viability after 48 hrs by MTT assay
Format: toxicity, cell-based, WI-38
Grouping by measured IC50 at 48 h is done with the following cut points: LOW = under 10 µM, MEDIUM = from 10 µM up to 50 µM, HIGH = 50 µM and over

Problem: Form field 'band' for COc1ccc(/C=C/C(=O)c2cc3cccc(OC)c3oc2=O)cc1OC
Result: MEDIUM

Problem: Now consider COc1cc(/C=C/C(=O)c2cc3cccc(OC)c3oc2=O)cc(OC)c1OC and answer again.
Result: LOW

Problem: Now consider COc1ccc(/C=C(\C#N)C(=O)N/N=C(\C)c2cc3cccc(OC)c3oc2=O)cc1 and answer again.
Result: MEDIUM

Problem: Now consider COc1ccc(/C=C/C(=O)c2cc3cccc(OC)c3oc2=O)cc1 and answer again.
Result: HIGH

Problem: Now consider COc1ccc(-c2cc(-c3cc4cccc(OC)c4oc3=O)nc(C#N)c2N)cc1OC and answer again.
Result: MEDIUM

Problem: Now consider COc1ccc(/C=C(\C#N)C(=O)N/N=C(\C)c2cc3cccc(OC)c3oc2=O)cc1OC and answer again.
Result: LOW

Problem: Now consider COc1cc(/C=C(\C#N)C(=O)N/N=C(\C)c2cc3cccc(OC)c3oc2=O)cc(OC)c1OC and answer again.
Result: MEDIUM

Problem: Now consider COc1ccc(-c2cc(-c3cc4cccc(OC)c4oc3=O)nc(C#N)c2N)cc1 and answer again.
Result: LOW

Problem: Now consider CCOC(=O)c1ccc(-c2cc3cccc(OC)c3oc2=O)nc1C and answer again.
Result: HIGH

Problem: Now consider COc1cccc2cc(-c3ccc(C(C)=O)c(C)n3)c(=O)oc12 and answer again.
Result: HIGH
